TARGET ENTITY: L-lactate dehydrogenase (Plasmodium falciparum (isolate CDC / Honduras))
ASSAY PROTOCOL: PfLDH activity inhibition – cell lysate, 3D7 strain, counter-screen for P. falciparum growth inhibition project (AID 2304);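 also: 0% = vehicle and 100% = reference inhibitor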
CONDITION INFO: P. falciparum 3D7 crude extract, LDH APAD/NBT absorbance; at 2 µM; active compounds read high

[
  {
    "SMILES REPRESENTATION": "Cc1ccc(Nc2nc(C)cc(NC3CCCC3)n2)cc1",
    "inhibition [%]": 0
  },
  {
    "SMILES REPRESENTATION": "CC(C)c1ccc(CN2CCC(NC(=O)c3ccc(-c4cccc(F)c4)s3)CC2)cc1",
    "inhibition [%]": 3
  },
  {
    "SMILES REPRESENTATION": "FC(F)(F)c1ccc2nc(-c3ccc(-c4ccc(CN5CCN(c6cnccn6)CC5)cc4)s3)[nH]c2c1",
    "inhibition [%]": -7
  },
  {
    "SMILES REPRESENTATION": "CCn1ccc2c(N3CCCC3=O)cc(C(=O)N[C@@H](Cc3ccccc3)[C@H](O)CNC(C)(C)CCCC(C)C)cc21",
    "inhibition [%]": -3
  },
  {
    "SMILES REPRESENTATION": "c1ccc(CCNc2ccnc(Nc3ccc4cn[nH]c4c3)n2)cc1",
    "inhibition [%]": -3
  },
  {
    "SMILES REPRESENTATION": "COc1ccc(N2CCN(c3nc(Nc4ccc(NC(C)=O)cc4)nc(N4CCCC4)n3)CC2)cc1",
    "inhibition [%]": -2
  },
  {
    "SMILES REPRESENTATION": "CCc1cn2c3c(cc(C(=O)N[C@@H](Cc4cccc(F)c4)[C@H](O)CNC4CCCCC4)cc13)N(C)S(=O)(=O)CC2",
    "inhibition [%]": 0
  },
  {
    "SMILES REPRESENTATION": "CCOc1cc(O)c(-c2nc(N)ncc2-c2ccc3c(c2)OCCO3)cc1CC",
    "inhibition [%]": -1
  },
  {
    "SMILES REPRESENTATION": "O=C(Nc1cccc(CN2CCCN(Cc3ccc(O)cc3)CC2)c1)c1ccc2ccccc2n1",
    "inhibition [%]": -1
  }
]
